# Tested on: NCI-H522 lung
# ASSAY_NOTES: NCI tumour cell line growth inhibition, 48 h; in the data active means GI50 below about 0.43 µM; inactive means the rest
Possible outcomes: yes (1) = active, no (0) = inactive

INSERT INTO results (smiles_string, assay_system, label_class) VALUES
  ('COC(=O)c1sc(=S)c2sc(C(=O)OC)c(C(=O)OC)c2c1C(=O)OC', 'NCI-H522 lung', 'no (0)'),
  ('CC(C)(C)OC(=O)CC(S(=O)(=O)c1ccccc1)S(=O)(=O)c1ccccc1', 'NCI-H522 lung', 'no (0)'),
  ('c1ccc(-c2nc3ccccc3[nH]2)c(OCCCCCOc2ccccc2-c2nc3ccccc3[nH]2)c1', 'NCI-H522 lung', 'no (0)'),
  ('NCC[PH+](c1ccccc1)c1ccccc1.NCC[PH+](c1ccccc1)c1ccccc1.[Cl-].[Pt+4]', 'NCI-H522 lung', 'no (0)'),
  ('COc1ccccc1CNCCCN1C(=O)c2ccc3c4c(ccc(c24)C1=O)C(=O)N(CCCNCCCCN)C3=O', 'NCI-H522 lung', 'yes (1)');
